# System: Rattus norvegicus
# procedure.text: % Inhibition of angiotensin-I induced pressor response in normotensive rats after peroral dosing of 1.5 umol/kg
# Type: functional
# assay.context: po
Kindly return 1 (yes) if reported inhibition in vivo at 1.5 µmol/kg is no lower than 80%; return 0 (no) if it is lower.

A selection of reference data follows.
compound=C[C@H](N[C@@H](CCc1ccccc1)C(=O)O)C(=O)N1C[C@@H](Sc2ccccc2)C[C@H]1C(=O)O group_label="0 (no)"
compound="C[C@H](CS)C(=O)N1CCC[C@H]1C(=O)O [CAPTOPRIL]" group_label="0 (no)"
compound=CCOC(=O)[C@H](CCc1ccccc1)N[C@@H](C)C(=O)N1CC2(C[C@H]1C(=O)O)SCCS2 group_label="1 (yes)"

In: Kindly determine if inhibition in vivo at 1.5 µmol/kg recorded for CCOC(=O)[C@H](CCc1ccccc1)N[C@@H](C)C(=O)N1CCC[C@H]1C(=O)O is above or exactly 80%.
Out: 1 (yes)
